Method: Plasma level area under the curve in brain in diet induced obese mouse(DIO) at a oral dose of 10 mg/kg
Format: ADME, organism-based
Design: dose 10 mg/kg, route oral
Measurement Label: AUC
Note to self: number, then unit, no commentary.

Look up AUC for this molecule: COc1cc(C(=O)NC2CCCN(Cc3ccc4c(c3)OCO4)C2)cc(OC)c1C (stereo unspecified)
24900 ng·h/mL

====

Method: Half life time to reach brain in diet induced obese mouse(DIO) at a oral dose of 10 mg/kg
Type: ADME, organism-based
Parameters: dose 10 mg/kg, route oral
Measurement Label: half-life (h)
Lab book: enter the figure in h, no units written.

half-life for COc1cc(C(=O)NC2CCCN(Cc3ccc4c(c3)OCO4)C2)cc(OC)c1C (stereo unspecified) ?
3.7

====

Method: Volume of distribution in dog after intravenous dose of 2.5 mg/kg
Format: ADME, organism-based, Canis lupus familiaris
Set-up: dose 2.5 mg/kg, route intravenous
Condition Label: in vivo, read-out: Vb
Measurement Label: Vd

May I ask what Vd has been recorded for COc1cc(C(=O)NC2CCCN(Cc3ccc4c(c3)OCO4)C2)cc(OC)c1C (stereo unspecified) ?
1.2 L/kg

====

Method: Maximum plasma concentration in diet induced obese mouse(DIO) at a oral dose of 10 mg/kg
Type: ADME, organism-based
Design: dose 10 mg/kg, route oral
Measurement Label: Cmax (ng/mL)
Quick reminder: number only, in ng/mL, skip the unit.

Could you share which Cmax value was measured for COc1cc(C(=O)NC2CCCN(Cc3ccc4c(c3)OCO4)C2)cc(OC)c1C (stereo unspecified) ?
2300

====

Method: Plasma level area under the curve in plasma in diet induced obese mouse(DIO) at a oral dose of 10 mg/kg
Assay type: ADME, organism-based
Set-up: dose 10 mg/kg, route oral
Measurement Label: AUC
// return the numeric value with its unit appended

Can you share its AUC? I mean this compound: COc1cc(C(=O)NC2CCCN(Cc3ccc4c(c3)OCO4)C2)cc(OC)c1C (stereo unspecified)
9800 ng·h/mL

====

Method: Plasma clearance in dog after intravenous dose of 2.5 mg/kg
Format: ADME, organism-based, Canis lupus familiaris
Parameters: dose 2.5 mg/kg, route intravenous
Condition Label: read-out: Clp (converted)
Measurement Label: clearance (mL/min/kg)
Form entry: value (mL/min/kg) — number only.

Find the recorded clearance belonging to COc1cc(C(=O)NC2CCCN(Cc3ccc4c(c3)OCO4)C2)cc(OC)c1C (stereo unspecified) and report it.
3

====

Method: Plasma level area under the curve in dog after intravenous dose of 2.5 mg/kg
Format: ADME, organism-based, Canis lupus familiaris
Design: dose 2.5 mg/kg, route intravenous
Measurement Label: AUC (ng·h/mL)
Express it in ng·h/mL; write the number only.

Query (molecule): COc1cc(C(=O)NC2CCCN(Cc3ccc4c(c3)OCO4)C2)cc(OC)c1C (stereo unspecified) ; field requested: AUC
14100

====

Method: Plasma level area under the curve in dog after oral dose of 2.5 mg/kg
Assay type: ADME, organism-based, Canis lupus familiaris
Parameters: dose 2.5 mg/kg, route oral
Measurement Label: AUC (ng·h/mL)
Field format: number, assumed ng·h/mL, no unit text.

What value of AUC has been recorded for this entry: COc1cc(C(=O)NC2CCCN(Cc3ccc4c(c3)OCO4)C2)cc(OC)c1C (stereo unspecified)
11900

Reference source for all entries: ChEMBL document CHEMBL1140256
